MEASUREMENT TARGET: FGFR3 (UniProt P22607)
Sequence (P22607 whole entry, looked up): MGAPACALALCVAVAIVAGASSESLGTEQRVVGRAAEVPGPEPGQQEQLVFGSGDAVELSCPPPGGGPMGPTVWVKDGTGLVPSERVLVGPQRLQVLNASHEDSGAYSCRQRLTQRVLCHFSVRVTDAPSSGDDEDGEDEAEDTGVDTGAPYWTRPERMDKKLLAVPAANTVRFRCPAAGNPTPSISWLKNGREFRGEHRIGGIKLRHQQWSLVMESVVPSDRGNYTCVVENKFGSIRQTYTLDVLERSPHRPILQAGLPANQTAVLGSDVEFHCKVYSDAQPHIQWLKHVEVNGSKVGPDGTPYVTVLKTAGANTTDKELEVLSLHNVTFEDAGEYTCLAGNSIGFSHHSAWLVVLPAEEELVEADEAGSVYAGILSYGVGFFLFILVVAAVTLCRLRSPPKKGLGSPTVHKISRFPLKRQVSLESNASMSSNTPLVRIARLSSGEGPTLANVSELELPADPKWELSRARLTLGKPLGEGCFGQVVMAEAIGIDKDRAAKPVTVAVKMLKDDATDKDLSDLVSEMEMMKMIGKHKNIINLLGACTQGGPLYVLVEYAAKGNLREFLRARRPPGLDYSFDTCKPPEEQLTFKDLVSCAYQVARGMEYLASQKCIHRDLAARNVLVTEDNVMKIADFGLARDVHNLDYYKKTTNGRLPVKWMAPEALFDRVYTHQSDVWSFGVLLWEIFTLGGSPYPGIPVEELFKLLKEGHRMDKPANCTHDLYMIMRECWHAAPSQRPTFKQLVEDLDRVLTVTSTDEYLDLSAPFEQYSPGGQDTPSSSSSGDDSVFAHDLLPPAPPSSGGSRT
TEST NAME: phosphorylation enrichment, bacterial display (enrichment ratio); higher = better substrate or ligand; peptides without Tyr show the background;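 further: 11-residue human phosphosite peptides and single-mutation variants displayed on the E. coli surface, counted by deep sequencing, each peptide's frequency after selection divided by its frequency in the unselected input library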;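 further: frequency after pTyr selection over input frequency; kinase dosed for 20-30% of maximal phosphorylation in three min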
Kind request: treat 0.5 as inclusive, so phosphorylation enrichment at 0.5 or higher is condition met, anything lower is condition not met.

Identify whether the reported phosphorylation enrichment of the following sequence is 0.5 or greater: GDEVEYMLVSF [GCLC_Y53] condition met

API: above_or_equal(metric=phosphorylation enrichment, cutoff=0.5) for item EQKKYSNAMKK [SCN5A_Y1495_Y1495S] condition not met

Say whether LTQRTYMSENA [GPAA1_Y49] shows phosphorylation enrichment of 0.5 or more. condition not met

Reported phosphorylation enrichment at or above 0.5? LNLDTYQKRLR [PLA2G2D_Y126_R121L] condition met

Quick check: does KVPRHYDDPGK [FOXG1_Y246] have phosphorylation enrichment greater than or equal to 0.5? condition met
